Just for reference, patent US20260042755A1 is where these values come from.

target.of.assay: GPR6 (Homo sapiens, UniProt P46095)
Construct: expressed in transfected cells; host or cells: CHO cells
Sequence (P46095 whole entry): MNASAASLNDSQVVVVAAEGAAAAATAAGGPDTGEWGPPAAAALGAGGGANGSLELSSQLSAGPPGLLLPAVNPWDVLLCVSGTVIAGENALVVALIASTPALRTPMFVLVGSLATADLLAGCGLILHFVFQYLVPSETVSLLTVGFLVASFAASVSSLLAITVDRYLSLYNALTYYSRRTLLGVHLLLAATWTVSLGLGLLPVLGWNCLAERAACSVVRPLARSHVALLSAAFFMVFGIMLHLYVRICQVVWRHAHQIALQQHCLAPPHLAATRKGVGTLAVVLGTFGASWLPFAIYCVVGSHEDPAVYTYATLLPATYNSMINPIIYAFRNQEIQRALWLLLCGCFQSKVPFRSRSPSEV
experimental.protocol: GPR6 antagonist functional cAMP assay (LANCE Ultra cAMP TR-FRET, CHO cells stably expressing GPR6)
Assay type: cell-based
assay.setup: CHO cells stably expressing GPR6, cAMP assay
pIC50: −log10 of the molar value.

{"compound": "CC(=O)N1CCc2nc(N3CCN(Cc4cc(F)ccc4F)CC3)c(-c3cnn(C)c3)nc2C1 [Compound 505]", "pIC50": "6.00 to 7.00"}
{"compound": "CC(=O)N1CCc2nc(N3CCC(=Cc4ccc(F)cc4F)CC3)c(-c3cnn(C)c3)nc2C1 [Compound 542]", "pIC50": "> 7.00"}
{"compound": "CC(=O)OC1CCN(c2nc3c(nc2-c2cnn(C)c2)CN(Cc2ccccc2)CC3)C1 (stereo not drawn) [Compound 495]", "pIC50": "4.52 to 6.00"}
{"compound": "CC(C)(O)C(O)c1cc2nc(N3CCN(Cc4ccccc4F)CC3)c(-c3cnn(C(F)F)c3)nc2cn1 (stereo not drawn) [Compound 559]", "pIC50": "6.00 to 7.00"}
{"compound": "COc1cc(F)c(OC2CCN(c3nc4c(nc3-c3cnn(C)c3)CN(C(C)=O)CC4)CC2)cc1Cl [Compound 503]", "pIC50": "4.52 to 6.00"}
{"compound": "CC(=O)N1CCc2nc(N3CCN(Cc4cc(F)ccc4F)CC3)c(-c3ccc(F)c(N)n3)nc2C1 [Compound 581]", "pIC50": "> 7.00"}
{"compound": "CC(=O)N1CCc2nc(N3CCN(Cc4ccc(F)cc4F)CC3)c(-c3ccc(F)c(N)n3)nc2C1 [Compound 609]", "pIC50": "6.00 to 7.00"}
{"compound": "CC(C)(O)C(O)c1cc2nc(-c3cnn(CF)c3)c(N3CCC(Oc4ccc(F)cc4F)CC3)nc2cn1 (single isomer, unassigned) [Compound 592]", "pIC50": "> 7.00"}
{"compound": "CC(=O)N1Cc2nc(-c3cnn(C)c3)c(N3CCC(Oc4ccc(F)cc4F)CC3)nc2C(C)C1 (stereo not drawn) [Compound 540]", "pIC50": "> 7.00"}
{"compound": "CC(C)(O)C(O)c1cc2nc(-c3cnn(C4CC4)c3)c(N3CCN(Cc4ccc(F)cc4F)CC3)nc2cn1 (single isomer, unassigned) [Compound 600]", "pIC50": "> 7.00"}
{"compound": "CCn1cc(-c2nc3cnc([C@@H](O)C(C)(C)O)cc3nc2N2CCN(Cc3ccc(F)cc3F)CC2)cn1 (single isomer, unassigned) [Compound 574]", "pIC50": "6.00 to 7.00"}
{"compound": "CC(=O)N1CCc2nc(N3CCN(Cc4ccsc4)CC3)c(-c3cnn(C)c3)nc2C1 [Compound 514]", "pIC50": "4.52 to 6.00"}
{"compound": "CC(C)(O)[C@@H](O)c1cc2nc(N3CCC(Oc4ccc(F)cc4F)CC3)c(-c3cnn(C(F)F)c3)nc2cn1 (single isomer, unassigned) [Compound 555]", "pIC50": "6.00 to 7.00"}
{"compound": "CC(C)(O)C(O)c1cc2nc(-c3cnn(CF)c3)c(N3CCN(Cc4ccc(F)cc4F)CC3)nc2cn1 (single isomer, unassigned) [Compound 602]", "pIC50": "6.00 to 7.00"}
{"compound": "COc1ccc(OC2CCN(c3nc4c(nc3-c3cnn(C)c3)CN(C(C)=O)CC4)CC2)cc1F [Compound 502]", "pIC50": "6.00 to 7.00"}
{"compound": "Cn1cc(-c2nc3ccc(C(O)C(C)(C)O)nc3nc2N2CCC(Oc3ccc(F)cc3F)CC2)cn1 (stereo not drawn) [Compound 587]", "pIC50": "4.52 to 6.00"}
{"compound": "CC(=O)N1CCc2nc(N3CCN(C(CO)(CO)c4ccccc4F)CC3)c(-c3cnn(C)c3)nc2C1 [Compound 552]", "pIC50": "4.52 to 6.00"}
{"compound": "CC(=O)N1CCc2nc(N3CCC(Oc4ccc(F)cc4F)CC3)c(C3CCN(CC(F)(F)F)CC3)nc2C1 [Compound 496]", "pIC50": "4.52 to 6.00"}
{"compound": "CC(C)(O)[C@@H](O)c1cc2nc(N3CCN(Cc4ccc(F)cc4F)CC3)c(-c3cnn(C4CC4)c3)nc2cn1 (single isomer, unassigned) [Compound 577]", "pIC50": "6.00 to 7.00"}
{"compound": "CC(=O)N1CCc2nc(N3CCC(Oc4ccc(Br)cn4)CC3)c(-c3cnn(C)c3)nc2C1 [Compound 513]", "pIC50": "4.52 to 6.00"}
{"compound": "CCn1cc(-c2nc3c(nc2N2CCN(C(=O)c4ccc(Cl)cc4)CC2)CCN(C(C)=O)C3)cn1 [Compound 549]", "pIC50": "6.00 to 7.00"}
{"compound": "CC(=O)N1CCc2nc(N3CCN(Cc4ccccc4C)CC3)c(-c3cnn(C)c3)nc2C1 [Compound 510]", "pIC50": "4.52 to 6.00"}
{"compound": "CC(=O)N1CCc2nc(N3CCN(Cc4ccc(=O)[nH]c4)CC3)c(-c3cnn(C)c3)nc2C1 [Compound 532]", "pIC50": "≤ 4.52"}
{"compound": "CCn1cc(-c2nc3c(nc2N2CCC(Oc4ccc(F)cc4F)CC2)CCN(C(=O)C2COCCN2C)C3)cn1 (stereo not drawn) [Compound 492]", "pIC50": "6.00 to 7.00"}
{"compound": "CC(C)(O)[C@H](O)c1cc2nc(N3CCC(Oc4ccc(F)cc4F)CC3)c(-c3cnn(C(F)F)c3)nc2cn1 (single isomer, unassigned) [Compound 554]", "pIC50": "> 7.00"}
{"compound": "CC(=O)N1CCc2nc(N3CCN(Cc4cnn(C)c4)CC3)c(-c3cnn(C)c3)nc2C1 [Compound 526]", "pIC50": "≤ 4.52"}
{"compound": "CC(C)(O)C(O)c1cc2nc(-c3cnn(CF)c3)c(N3CCN(Cc4ccc(F)cc4F)CC3)nc2cn1 (single isomer, unassigned) [Compound 603]", "pIC50": "> 7.00"}
